Reported pKi is given for each of the following binders.
measured on: LH-RH receptors (membrane fractions of pituitaries from female Sprague Dawley rats) (rat (female Sprague Dawley)) (UniProt P30969)
Sequence (P30969 whole entry): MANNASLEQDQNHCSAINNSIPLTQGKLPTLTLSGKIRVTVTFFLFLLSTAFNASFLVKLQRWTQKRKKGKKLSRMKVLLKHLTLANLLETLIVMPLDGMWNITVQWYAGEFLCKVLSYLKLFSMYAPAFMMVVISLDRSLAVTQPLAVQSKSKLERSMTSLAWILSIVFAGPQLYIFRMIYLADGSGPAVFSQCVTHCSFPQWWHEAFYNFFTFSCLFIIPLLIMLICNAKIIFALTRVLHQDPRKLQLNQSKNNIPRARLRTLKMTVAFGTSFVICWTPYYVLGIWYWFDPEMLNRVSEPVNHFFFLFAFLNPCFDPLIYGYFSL
procedure text: competition with [125I]-buserelin, rat pituitary membranes; Ki by Cheng-Prusoff
Square brackets hold non-standard residues; d marks the D form. dPhe(4-Cl) = N[C@H](Cc1ccc(Cl)cc1)C(=O)O; d(hCit) = NC(=O)NCCCC[C@@H](N)C(=O)O; tBuAla = CC(C)(C)C[C@H](N)C(=O)O; d3Pal = N[C@H](Cc1cccnc1)C(=O)O
measured metric: pKi

[[record]]
binder = "Ac-X[dPhe(4-Cl)][d3Pal]SY[d(hCit)][tBuAla]RP[dA]-NH2 (not fully specified (residue 1); printed as AcD-Nal-D-pClPhe-D-Pal-Ser-Tyr-D-HCit-Npg-Arg-Pro-D-Ala-NH2; also: trifluoroacetate salt) [AcD-Nal-D-pClPhe-D-Pal-Ser-Tyr-D-HCit-Npg-Arg-Pro-D-Ala-NH2]"
measured_value = "10.1 -log Ki"

[[record]]
binder = "XHWSYXXRPG (pGlu at 1; D-Nal (3-(2-naphtyl)alanine) at 6; Npg at 7; C-terminal Gly-NH2 (amide)) [pGlu-His-Trp-Ser-Tyr-D-Nal-Npg-Arg-Pro-Gly-NH2]"
measured_value = "8.97 -log Ki"

